# Test system: OCI-AML2
# Experimental protocol: cell viability relative to vehicle control; higher = less cytotoxic;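 also: after 48 h exposure read by CellTiter-Glo luminescence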
# Measurement conditions: 10 µM; SRSF2 genotype: P95H/wt
Quantity: cell viability (%)
Write the answer as a number in %, unit excluded.

// returns reported cell viability for input COc1ccc(COc2cc3oc(=O)c4cc(C(C)O)ccc4c3cc2OC)cc1 (stereo not given)
106

Another: COc1c(C)cnc(Cn2cnc3c(Cl)nc(N)nc32)c1C
18.4

Another: CN(C)CCN1C(=O)c2cccc3cc(N)cc(c23)C1=O [Amonafide]
0.94

Another: Cc1cc(-c2cc(C)c(NCCCS(=O)(=O)O)c(C)c2)cc(C)c1N
99.9

Another: C=C(C)C1CC=C(C=NO)CC1 (stereo not given)
100

====

# System: MARIMO
# Experimental protocol: cell viability relative to vehicle control; higher = less cytotoxic
# Measurement conditions: 10 µM; SRSF2 genotype: SRSF2 P95H/wt
Quantity: cell viability
State the value with its unit after it.

Which cell viability is reported with MARIMO for this entry: CC(C)C[C@H](NC(=O)[C@H]1O[C@@H]1C(=O)O)C(=O)NCCCCN=C(N)N ?
99.6%

Another: COC(=O)C1(C)CCC2(C(=O)O)CCC3(C)C(=CCC4C5(C)CC(O)C(O)C(C)(CO)C5CCC43C)C2C1 (centres undefined) [Phytolaccagenin]
111%

Another: CC(C)(O[C@@H]1O[C@H](CO)[C@@H](O)[C@H](O)[C@H]1O)[C@H]1Cc2cc3ccc(=O)oc3cc2O1 [Nodakenin]
98.7%

Another: COC(=O)c1cc(OC)c2c(c1-c1c(C(=O)OC)cc(OC)c3c1OCO3)OCO2 [Bifendate]
101%

====

# System: OCI-AML2
# Experimental protocol: cell viability relative to vehicle control; higher = less cytotoxic
# Measurement conditions: 10 µM; SRSF2 genotype: P95H/wt
cell viability strictly under 30% means yes (1); at 30% or over means no (0).

Does O=C(O)c1ccc(-c2ccc(C=C3SC(=S)N(Cc4ccccc4)C3=O)o2)cc1 [Leukadherin-1] have cell viability strictly under 30%?
no (0)

Another: O=C(NS(=O)(=O)c1ccc(Br)s1)c1ccc(Cl)cc1Cl
no (0)

Another: O=C1OC(COc2ccccc2[N+](=O)[O-])CC1Cc1ccccc1 (stereo not given)
no (0)

Another: CCn1cc(-c2ccnc3[nH]c(-c4cccc(CN(C)C)c4)cc23)c(-c2ccc(NC(=O)N(C)C)cc2)n1
yes (1)

====

# Tested on: OCI-AML2
# Experimental protocol: cell viability relative to vehicle control; higher = less cytotoxic
# Measurement conditions: 10 µM; SRSF2 genotype: P95H/wt
Counter-ions that a name gives are not always drawn.
Quantity: cell viability (%)
Write the answer as a number in %, unit excluded.

// returns reported cell viability for input COc1cc2c(=O)c(-c3ccc(O)cc3)coc2cc1O
90.3

Another: Cc1ccccc1N=Nc1ccc(NC(=O)c2ccnn2C)c(C)c1
73.1

Another: CNc1ccc([N+](=O)[O-])c(Nc2ccc3[nH]ncc3c2)n1
18.9

Another: CC1(C)OC[C@@H](COC(=O)CCc2ccc(OC[C@@H](O)CNCCNC(=O)N3CCOCC3)cc2)O1 [Landiolol hydrochloride]
98.3

Another: CC(=O)OC1CC2CCC1(C)C2(C)C (stereo unspecified) [Bornyl acetate]
110

Another: Cc1nc(Nc2cnn(C3CCNCC3)c2)nc2c1N(C)C(=O)c1cc3ccccc3cc1N2C
19.2

Another: CCC(C)CC(C)CCCCCCCCC(=O)NC1CC(O)C(O)NC(=O)C2C(O)CCN2C(=O)C(C(O)CC(N)=O)NC(=O)C(C(O)C(O)c2ccc(O)cc2)NC(=O)C2CC(O)CN2C(=O)C(C(C)O)NC1=O (stereo unspecified)
95.7

Another: CCN(CC)CCOCCOC(=O)C1(c2ccccc2)CCCC1 [Pentoxyverine Citrate]
112

Another: CCCCCCCN(CC)CCCC(O)c1ccc(NS(C)(=O)=O)cc1 (stereo unspecified) [Ibutilide fumarate]
97.9

Another: CC1(C)CCCC2(C)C1CCC1(C)OCCC12 (single isomer, unassigned; (-)) [(-)-Ambroxide]
98

Another: CC(=O)OC/C=C(/C)CCC=C(C)C [Neryl acetate]
100

Another: CC(C)OC(=O)CCC/C=C\C[C@@H]1[C@@H](/C=C/[C@@H](O)COc2cccc(C(F)(F)F)c2)[C@H](O)C[C@@H]1O
23.5

Another: Nc1ccc(Oc2ccc(-c3ccc(Oc4ccc(N)cc4)cc3)cc2)cc1
96

Another: COc1cc(N2CCN(C)CC2)ccc1Nc1nccc(-c2cn(C)c3cnccc23)n1
6.46

Another: CC(=O)O[C@H]1C[C@@]2(C)[C@@H](C[C@@H](O)[C@H]3[C@@]4(C)CC[C@@H](O)[C@@H](C)[C@@H]4CC[C@@]32C)/C1=C(\CCC=C(C)C)C(=O)O [Fusidate Sodium]
94.7

Another: N=C(N)Nc1ccc(C(=O)Oc2ccc3cc(C(=N)N)ccc3c2)cc1 [Nafamostat mesylate]
83.2
